Origin of values: paper PMC8174729

- tested_on: CMP-sialic acid transporter (CST) (Mus musculus, UniProt Q61420)
- Sequence (Q61420 whole entry): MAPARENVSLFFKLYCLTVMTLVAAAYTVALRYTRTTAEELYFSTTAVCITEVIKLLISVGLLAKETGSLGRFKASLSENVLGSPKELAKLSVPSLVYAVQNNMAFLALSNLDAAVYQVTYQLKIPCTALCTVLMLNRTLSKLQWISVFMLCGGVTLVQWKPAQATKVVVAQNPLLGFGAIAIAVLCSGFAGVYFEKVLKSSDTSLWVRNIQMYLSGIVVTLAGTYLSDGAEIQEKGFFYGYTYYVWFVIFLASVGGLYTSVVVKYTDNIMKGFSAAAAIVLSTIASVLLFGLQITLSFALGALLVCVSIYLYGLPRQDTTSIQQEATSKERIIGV
- procedure_summary: FSEC thermal shift binding assay with Kd (also inhibits [3H]CMP-Sia uptake in Sf9 cells, IC50 […])
- Parameters: gene Slc35a1; Full-length, GFP-tagged mouse CST
pKd: −log10 of the molar value.
reported_property: pKd

input_smiles: Nc1ccn([C@@H]2O[C@H](COP(=O)(O)O)[C@@H](O)[C@H]2O)c(=O)n1
reported_property: pKd
test_value: 4.79
